Measured on: cGAS (Homo sapiens)
Sequence (Q8N884 whole entry): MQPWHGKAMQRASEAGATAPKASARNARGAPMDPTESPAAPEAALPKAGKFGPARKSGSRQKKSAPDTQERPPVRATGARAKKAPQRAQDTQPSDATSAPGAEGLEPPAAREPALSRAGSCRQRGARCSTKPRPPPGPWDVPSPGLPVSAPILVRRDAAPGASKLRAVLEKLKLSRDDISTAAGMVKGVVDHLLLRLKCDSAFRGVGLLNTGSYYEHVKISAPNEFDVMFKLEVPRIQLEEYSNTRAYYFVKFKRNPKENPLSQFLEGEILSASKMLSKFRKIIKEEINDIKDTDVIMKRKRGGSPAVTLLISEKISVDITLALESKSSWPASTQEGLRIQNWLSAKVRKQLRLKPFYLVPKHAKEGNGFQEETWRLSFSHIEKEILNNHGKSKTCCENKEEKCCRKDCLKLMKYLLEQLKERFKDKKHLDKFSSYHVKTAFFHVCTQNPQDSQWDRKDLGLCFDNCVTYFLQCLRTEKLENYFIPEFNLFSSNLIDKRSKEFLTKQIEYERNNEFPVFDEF
Protocol: ISD70-driven IP-10 (and IFN-β) production in THP-1 cells, ELISA
Type: cell-based
Set-up: endogenous in cells; host or cells: THP-1 (undifferentiated)
Cond: THP-1; 6 h pre-treatment, ISD70 2.5 μg/ml overnight (FIG. 3A); listed as C2-Mutl; read-out: IC50 (IP-10 production after ISD70 transfection)
Description: The ability of an oligonucleotide to inhibit cGAS activity can, for example, be analysed by incubating cells which express cGAS with an oligonucleotide, then stimulating said cells with a cGAS agonist (e.g., 70-bp interferon stimulating DNA or ISD70; 45-bp interferon stimulating DNA or ISD45), and analysing the overall cGAS response in the cell population, or analysing the proportion of cells having cGAS-positive activity after a defined period of time. […]
pIC50: −log10 of the molar value. In the oligonucleotide strings, read from the 5' end, every base follows the letter of its sugar. An asterisk marks phosphorothioate; unmarked linkages are phosphodiester. Other units and linkages are bracketed, terminal groups are in braces. A string of capitals states the bases alone. d = 2'-deoxy (DNA); m = 2'-O-methyl
Readout label: pIC50

Value of measured pIC50 for the entry mG*mC*mG*mG*mU*A*T*C*C*A*T*G*T*C*C*mC*mA*mG*mG*mC (mG*mC*mG*mG*mU*dA*dT*dC*dC*dA*dT*dG*dT*dC*dC*mC*mA*mG*mG*mC; antisense) [C2-Mut1] : ~7.25

====

Measured on: human TLR7 (Homo sapiens, UniProt Q9NYK1)
Construct: HA; host or cells: 293XL-hTLR7-HA (HEK293)
Sequence (Q9NYK1 27-1049): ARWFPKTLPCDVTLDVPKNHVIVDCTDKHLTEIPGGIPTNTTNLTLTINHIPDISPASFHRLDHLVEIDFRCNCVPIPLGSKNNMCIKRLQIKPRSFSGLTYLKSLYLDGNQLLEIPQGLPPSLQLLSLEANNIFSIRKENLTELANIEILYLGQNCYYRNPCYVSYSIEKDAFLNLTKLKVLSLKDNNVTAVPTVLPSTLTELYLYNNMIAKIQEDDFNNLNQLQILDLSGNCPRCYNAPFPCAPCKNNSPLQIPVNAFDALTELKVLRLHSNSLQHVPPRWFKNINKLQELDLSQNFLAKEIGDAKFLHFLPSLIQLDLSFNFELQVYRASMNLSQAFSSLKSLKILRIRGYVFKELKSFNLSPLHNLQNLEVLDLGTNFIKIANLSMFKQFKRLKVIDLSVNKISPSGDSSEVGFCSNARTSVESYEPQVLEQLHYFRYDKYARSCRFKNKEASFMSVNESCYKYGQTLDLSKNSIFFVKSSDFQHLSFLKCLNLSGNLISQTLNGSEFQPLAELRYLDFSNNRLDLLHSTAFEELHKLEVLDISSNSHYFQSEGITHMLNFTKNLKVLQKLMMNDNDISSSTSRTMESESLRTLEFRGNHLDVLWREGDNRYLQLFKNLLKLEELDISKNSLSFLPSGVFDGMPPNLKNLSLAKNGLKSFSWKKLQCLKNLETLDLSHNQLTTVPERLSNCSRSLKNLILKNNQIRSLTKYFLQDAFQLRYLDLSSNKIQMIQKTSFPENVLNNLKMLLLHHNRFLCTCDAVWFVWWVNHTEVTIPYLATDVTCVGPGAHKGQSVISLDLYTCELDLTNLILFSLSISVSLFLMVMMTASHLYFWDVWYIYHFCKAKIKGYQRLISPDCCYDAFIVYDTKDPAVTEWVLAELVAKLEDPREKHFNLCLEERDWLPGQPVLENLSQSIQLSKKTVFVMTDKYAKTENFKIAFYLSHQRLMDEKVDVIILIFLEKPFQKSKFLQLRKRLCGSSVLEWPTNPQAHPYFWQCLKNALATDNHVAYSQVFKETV
Protocol: HEK-TLR7 NF-κB-luciferase reporter, R848 stimulation
Type: cell-based
Cond: HEK-TLR7; 100 nM ASO; percentage of R848 without ASO (Alharbi et al., 2020)
Description: In such examples, inhibition of TLR7 activity can be identified by observation of an overall decreased TLR7 response of the cell population, or a lower proportion of cells having TLR7-positive activity as compared to positive control condition in which cells are treated with TLR7 agonist in the absence of the oligonucleotide (or in the presence of an appropriate control inhibitory agent). […] TLR7 activity can be determined by a luciferase assay, which measures activated NF-κB by luminescence. […]
In the oligonucleotide strings, read from the 5' end, every base follows the letter of its sugar. An asterisk marks phosphorothioate; unmarked linkages are phosphodiester. Other units and linkages are bracketed, terminal groups are in braces. A string of capitals states the bases alone. d = 2'-deoxy (DNA); m = 2'-O-methyl
// NB: equality with 60% counts as f; only TLR7-100 nM: averaged NF-κB-Luciferase relative to R848 strictly below is t

>  <Substance>
mA*mG*mA*mA*mA*G*A*A*G*C*A*A*A*G*A*mU*mU*mC*mA*mA (AGAAAGAAGCAAAGAUUCAA; sugars from the 5' end m5 d10 m5, all phosphorothioate, methylation of C not given here) [[CDKN2B-AS1]1519]

>  <Measured on>
human TLR7 (Homo sapiens, UniProt Q9NYK1)

>  <Qualitative label>
t

$$$$
>  <Substance>
mC*mA*mG*mU*mG*T*T*T*T*T*A*A*T*T*T*mU*mG*mU*mA*mG (mC*mA*mG*mU*mG*dT*dT*dT*dT*dT*dA*dA*dT*dT*dT*mU*mG*mU*mA*mG; antisense) [[CDKN2B-AS1]613]

>  <Measured on>
human TLR7 (Homo sapiens, UniProt Q9NYK1)

>  <Qualitative label>
f

$$$$
>  <Substance>
mA*mA*mU*mU*mU*A*A*A*G*C*A*T*G*A*A*mU*mA*mU*mU*mA (mA*mA*mU*mU*mU*dA*dA*dA*dG*dC*dA*dT*dG*dA*dA*mU*mA*mU*mU*mA) [[CDKN2B-AS1]645]

>  <Measured on>
human TLR7 (Homo sapiens, UniProt Q9NYK1)

>  <Qualitative label>
t

$$$$

QUERY: Report whether reported TLR7-100 nM: averaged NF-κB-Luciferase relative to R848 is lower than 60% (strictly) for mU*mG*mA*mC*mA*T*T*T*C*G*T*G*G*C*T*mC*mC*mU*mA*mC (mU*mG*mA*mC*mA*dT*dT*dT*dC*dG*dT*dG*dG*dC*dT*mC*mC*mU*mA*mC; antisense) [[LINC-PINT]523 KL]
RESULT: t
